- Target Under Test: pooled human IgG (human IgG1, 2, 3 and 4)
Quantity: Enzyme Activity Endpoint Assay: Fab′2 (ng/µL)
// units = ng/µL; emit number, no label

Challenge: Look up Enzyme Activity Endpoint Assay: Fab′2: PRT-526 (protein) MANQEIRYSEETPKTITSVWTKGVTPPTDFIKNEDVLHAPYIANQGWYDITKTFNGKDDLLCGAATAGNMLHWWFDQNKEEIERYLKKHPEKQKINFNGEQMFDVKEAIDTKDSQTDSALFEYFKDKAFPNLSTKHLGVMPDHVLDMFINGYYLSLGKHGPTPVKRGTKDPRGGIFDAVFTRGDQSKLLTSRHDFKEKTLKEISDLIKQELTEGKALALSHTYANVRINHVINLWGADFDSEGNLEAIYVTDSDSNASIGMKKYYVGVNSAGKVAISAKEIEGDNIGAQVLGLFTLSTGQDIWEQTNLEHHHHHH
Response given: 246

All figures here come from patent US20250027068.
